Origin of values: ChEMBL document CHEMBL2413035

System: HepG2
Assay: Cytotoxicity against human HepG2 cells after 3 days by XTT assay
Assay type: functional, cell-based
Calls of active or inactive are those of the source. The rule behind the calls is not given here.
readout-label: Activity

line-notation: Nc1ncnc2c1c1cc(-c3cccs3)ccc1n2[C@@H]1O[C@H](CO)[C@@H](O)[C@H]1O
measured-on: HepG2
test-result: inactive
//
line-notation: CCCCc1cccc2c1c1c(N)ncnc1n2[C@@H]1O[C@H](CO)[C@@H](O)[C@H]1O
measured-on: HepG2
test-result: inactive
//
line-notation: C[n+]1cnc2c(c1N)c1ccccc1n2[C@@H]1O[C@H](CO)[C@@H](O)[C@H]1O
measured-on: HepG2
test-result: inactive
//
line-notation: Nc1ncnc2c1c1cc(Cl)ccc1n2[C@@H]1O[C@H](CO)[C@@H](O)[C@H]1O
measured-on: HepG2
test-result: inactive
//
line-notation: Nc1ncnc2c1c1cc(-c3ccoc3)ccc1n2[C@@H]1O[C@H](CO)[C@@H](O)[C@H]1O
measured-on: HepG2
test-result: inactive
//
line-notation: OC[C@H]1O[C@@H](n2c3ccccc3c3c(C4CC4)ncnc32)[C@H](O)[C@@H]1O
measured-on: HepG2
test-result: inactive
//
line-notation: Nc1ncnc2c1c1cc(-c3ccccc3)ccc1n2[C@@H]1O[C@H](CO)[C@@H](O)[C@H]1O
measured-on: HepG2
test-result: inactive
//
line-notation: Nc1ncnc2c1c1c(-c3ccccc3)cccc1n2[C@@H]1O[C@H](CO)[C@@H](O)[C@H]1O
measured-on: HepG2
test-result: inactive
//
line-notation: Nc1ncnc2c1c1cc(-c3ccco3)ccc1n2[C@@H]1O[C@H](CO)[C@@H](O)[C@H]1O
measured-on: HepG2
test-result: inactive
//
line-notation: CN(C)c1ncnc2c1c1ccccc1n2[C@@H]1O[C@H](CO)[C@@H](O)[C@H]1O
measured-on: HepG2
test-result: inactive
//
line-notation: Nc1ncnc2c1c1ccccc1n2[C@@H]1O[C@H](CO)[C@@H](O)[C@H]1O
measured-on: HepG2
test-result: inactive
//
line-notation: Nc1ncnc2c1c1c(-c3ccsc3)cccc1n2[C@@H]1O[C@H](CO)[C@@H](O)[C@H]1O
measured-on: HepG2
test-result: inactive
//
line-notation: Nc1ncnc2c1c1cc(-c3ccsc3)ccc1n2[C@@H]1O[C@H](CO)[C@@H](O)[C@H]1O
measured-on: HepG2
test-result: inactive
//
line-notation: Nc1ncnc2c1c1c(-c3ccco3)cccc1n2[C@@H]1O[C@H](CO)[C@@H](O)[C@H]1O
measured-on: HepG2
test-result: inactive

====

Assay: Cytotoxicity against human HeLaS3 cells after 3 days by XTT assay
Type: functional, cell-based
Conditions: HeLa S3, 72 h
Measured IC50 values are reported for all entries that follow.
readout-label: IC50

line-notation: Cc1ncnc2c1c1ccccc1n2[C@@H]1O[C@H](CO)[C@@H](O)[C@H]1O
readout-label: IC50
test-result: 11 µM
--
line-notation: Nc1ncnc2c1c1c(Cl)cccc1n2[C@@H]1O[C@H](CO)[C@@H](O)[C@H]1O
readout-label: IC50
test-result: 21 µM
--
line-notation: Nc1ncnc2c1c1cc(-c3cc4ccccc4o3)ccc1n2[C@@H]1O[C@H](CO)[C@@H](O)[C@H]1O
readout-label: IC50
test-result: 93 µM

====

Measured CC50 values are reported for all entries that follow.
Test: Cytotoxicity against human […] cells infected with HCV 1B
Format: cell-based

line-notation: CN(C)c1ncnc2c1c1ccccc1n2[C@@H]1O[C@H](CO)[C@@H](O)[C@H]1O
CC50: > 44 µM

line-notation: Nc1ncnc2c1c1cc(-c3cc4ccccc4o3)ccc1n2[C@@H]1O[C@H](CO)[C@@H](O)[C@H]1O
CC50: 28 µM

line-notation: Nc1ncnc2c1c1cc(-c3ccsc3)ccc1n2[C@@H]1O[C@H](CO)[C@@H](O)[C@H]1O
CC50: 25.6 µM
